target of assay: Relipidated TF (Tissue Factor) (UniProt P13726 33-295, limits assumed)
measurement protocol: cell-based or functional assay
quantity kind: % Peak IIa, Ab 10 nM (%)
Reply numerically in %, unit not repeated.

binder	quantity kind	reading unit	reported
25A (antibody, human IgG1, V domains shown) VH: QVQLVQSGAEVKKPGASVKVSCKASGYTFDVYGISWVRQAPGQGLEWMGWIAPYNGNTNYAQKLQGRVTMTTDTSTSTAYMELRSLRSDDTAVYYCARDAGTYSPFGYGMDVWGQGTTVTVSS VL: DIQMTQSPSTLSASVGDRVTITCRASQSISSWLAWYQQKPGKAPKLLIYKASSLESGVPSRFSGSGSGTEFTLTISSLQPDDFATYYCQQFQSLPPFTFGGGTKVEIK	% Peak IIa, Ab 10 nM	%	97
5G9 (humanized TF8-5G9, CNTO 860) (antibody, V domains shown) VH: QVQLVESGGGVVQPGRSLRLSCKASGFNIKDYYMHWVRQAPGKGLEWIGLIDPENGNTIYDPKFQGRFTISADNSKNTLFLQMDSLRPEDTAVYYCARDNSYYFDYWGQGTPVTVSS VL: DIQMTQSPSSLSASVGDRVTITCKASQDIRKYLNWYQQKPGKAPKLLIYYATSLADGVPSRFSGSGSGTDYTFTISSLQPEDIATYYCLQHGESPYTFGQGTKLEIT	% Peak IIa, Ab 10 nM	%	24
TF-011 (antibody, V domains shown) VH: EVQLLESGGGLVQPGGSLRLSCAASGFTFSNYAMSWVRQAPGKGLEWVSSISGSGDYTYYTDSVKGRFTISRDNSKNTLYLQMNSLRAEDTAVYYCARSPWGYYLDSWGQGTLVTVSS VL: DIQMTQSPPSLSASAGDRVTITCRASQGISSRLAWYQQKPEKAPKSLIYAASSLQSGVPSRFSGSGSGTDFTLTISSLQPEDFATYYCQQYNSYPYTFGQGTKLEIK	% Peak IIa, Ab 10 nM	%	47

Q: Quick one: % Peak IIa, Ab 10 nM of 39A (antibody, human IgG1, V domains shown) VH: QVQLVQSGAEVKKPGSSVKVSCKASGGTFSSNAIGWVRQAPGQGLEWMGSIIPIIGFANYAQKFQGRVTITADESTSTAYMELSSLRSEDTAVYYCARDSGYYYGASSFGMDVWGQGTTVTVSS VL: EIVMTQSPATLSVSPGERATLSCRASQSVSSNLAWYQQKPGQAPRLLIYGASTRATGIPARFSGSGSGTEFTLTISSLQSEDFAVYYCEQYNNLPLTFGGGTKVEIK ?
A: 37

Values from patent US20240166765A1
